Target: Oatp1b2 (Mus musculus, UniProt Q9JJL3)
Sequence (Q9JJL3 whole entry): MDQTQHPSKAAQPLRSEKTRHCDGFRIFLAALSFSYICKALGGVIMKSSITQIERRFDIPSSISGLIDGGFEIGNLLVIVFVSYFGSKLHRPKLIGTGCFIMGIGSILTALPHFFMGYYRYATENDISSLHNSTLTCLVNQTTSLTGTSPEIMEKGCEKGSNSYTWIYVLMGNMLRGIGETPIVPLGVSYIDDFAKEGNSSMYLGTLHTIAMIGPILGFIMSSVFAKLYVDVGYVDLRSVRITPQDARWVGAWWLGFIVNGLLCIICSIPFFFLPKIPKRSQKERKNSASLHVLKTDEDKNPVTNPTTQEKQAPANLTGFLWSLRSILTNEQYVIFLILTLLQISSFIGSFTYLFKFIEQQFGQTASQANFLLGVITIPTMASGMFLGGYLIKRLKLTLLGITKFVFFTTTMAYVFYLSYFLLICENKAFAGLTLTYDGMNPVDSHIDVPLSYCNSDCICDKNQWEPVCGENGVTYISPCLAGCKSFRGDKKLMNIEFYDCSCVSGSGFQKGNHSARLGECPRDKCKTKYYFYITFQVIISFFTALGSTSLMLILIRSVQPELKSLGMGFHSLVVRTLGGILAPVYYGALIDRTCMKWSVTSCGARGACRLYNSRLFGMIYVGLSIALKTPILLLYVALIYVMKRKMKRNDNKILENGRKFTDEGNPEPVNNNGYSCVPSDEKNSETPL
Experiment: Untargeted metabolomics of plasma from untreated wild-type and Oatp1b2(−/−) mice
Conditions: plasma of untreated Oatp1b2-deficient (KO) vs wild-type (WT) mice; semi-quantitative; positive = higher in KO; n = 6 per group
Structures can show the parent of a compound that is named as a salt.
VALUE_TYPE: Fold of Change KO/WT
Respond using a number only.

O=S(=O)(O)Oc1ccccc1 [phenol sulfate] = 1.40
C[N+](C)(C)CC(CC(=O)[O-])OC(=O)CCCCCCCCCCCCCCCCC(=O)O (stereo not shown) = 1.16
CCCCCCCCCCCCCCCCCCCCCCCC(=O)OC[C@@H](O)COP(=O)([O-])OCC[N+](C)(C)C = 1.36
C=CC1=C(C)/C(=C/c2[nH]c(Cc3[nH]c(/C=C4\NC(=O)C(C)=C4C=C)c(C)c3CCC(=O)O)c(CCC(=O)O)c2C)NC1=O [bilirubin (E,E)] = 6.12
CCCCCCCCCCCCCCCC(=O)OC[C@H](COP(=O)([O-])OCC[N+](C)(C)C)OC(=O)CCCCCCCCCCCCCCC = 1.31
O=C(O)CCCCCCCCCC(=O)O [undecanedioate (C11-DC)] = 3.00

Shift focus to the following entry.
IN: Fold of Change KO/WT lookup needed for CCCCC/C=C\C/C=C\C/C=C\C/C=C\CCCC(=O)O[C@H](CO/C=C\CCCCCCCCCCCCCCCC)COP(=O)(O)OCCN , thanks.
OUT: 1.33

// provenance: paper PMC9502272
